Source listed as ChEMBL document CHEMBL4699542.

molecular target: Gamma-secretase; assay: Modulation of gamma secretase in human SH-SY5Y cells overexpressing wild type APP751 assessed as inhibition of amyloid beta (35 to 42 residues) formation incubated for overnight by ELISA; format: cell-based
One threshold, 100 nM, splits the recorded IC50 values: lower ones are satisfied, equal or higher ones are not satisfied.

[[record]]
structure_smiles = "Cc1cn(-c2ccc(-c3csc(Nc4c5c(nn4C)CCCC5)n3)cc2)cn1"
tested_system = "Gamma-secretase"
group_label = "not satisfied"


Please indicate whether the reported IC50 of COc1nc(-c2csc(Nc3cc(C(F)(F)F)nn3CC(F)(F)F)n2)ccc1-n1cnc(C)c1 is strictly below 100 nM. not satisfied

Record COc1nc(-c2csc(Nc3c4c(nn3C3CCC3)CCC4)n2)ccc1-n1cnc(C)c1 : is its IC50 strictly below 100 nM? satisfied

Quick check: IC50 of CCn1nc(C(C)(C)C)cc1Nc1nc(-c2ccc(-n3cnc(C)c3)nc2)cs1 under 100 nM? not satisfied

# strict comparison: is reported IC50 < 100 nM? input = COc1cc(-c2csc(Nc3c4c(nn3C)CCCC4)n2)ccc1-n1cnc(C)c1 not satisfied
